- Test system: Haemophilus influenzae
- assay-comment: Antibacterial activity against Haemophilus influenzae 2762
- Assay type: functional
Reported values of MIC for individual entries
Respond numerically; units are µg/mL and should not be typed.

Below, each entry is followed by its recorded MIC result.
Reported MIC ( "C=C[C@]12OC(=O)N(CCN(C)Cc3cccc(-c4cccnc4)c3)[C@@H]1[C@@H](C)C(=O)[C@H](C)C[C@@](C)(OC)[C@H](O[C@@H]1O[C@H](C)C[C@H](N(C)C)[C@H]1O)[C@@H](C)C(=O)[C@@H](C)C(=O)O[C@@H]2CC" ) = 1.56

Reported MIC ( "C=C[C@]12OC(=O)N(CCCCn3cnc4cccnc43)[C@@H]1[C@@H](C)C(=O)[C@H](C)C[C@@](C)(OC)[C@H](O[C@@H]1O[C@H](C)C[C@H](N(C)C)[C@H]1O)[C@@H](C)C(=O)[C@@H](C)C(=O)O[C@@H]2CC" ) = 0.78

Continuing:
Reported MIC ( "C=C[C@]12OC(=O)N(CCCCn3ccc4c(N)cccc43)[C@@H]1[C@@H](C)C(=O)[C@H](C)C[C@@](C)(OC)[C@H](O[C@@H]1O[C@H](C)C[C@H](N(C)C)[C@H]1O)[C@@H](C)C(=O)[C@@H](C)C(=O)O[C@@H]2CC" ) = 3.13

Reported MIC ( "C=C[C@]12OC(=O)N(CCCCn3cc(Cl)c4ncccc43)[C@@H]1[C@@H](C)C(=O)[C@H](C)C[C@@](C)(OC)[C@H](O[C@@H]1O[C@H](C)C[C@H](N(C)C)[C@H]1O)[C@@H](C)C(=O)[C@@H](C)C(=O)O[C@@H]2CC" ) = 0.78

Reported MIC ( "C=C[C@]12OC(=O)N(CCCCn3cnc(-c4cccnc4)c3)[C@@H]1[C@@H](C)C(=O)[C@H](C)C[C@@](C)(OC)[C@H](O[C@@H]1O[C@H](C)C[C@H](N(C)C)[C@H]1O)[C@@H](C)C(=O)[C@@H](C)C(=O)O[C@@H]2CC" ) = 1.56

Reported MIC ( "C=C[C@]12OC(=O)N(CCN(C)Cc3ccc(-c4cccnc4)s3)[C@@H]1[C@@H](C)C(=O)[C@H](C)C[C@@](C)(OC)[C@H](O[C@@H]1O[C@H](C)C[C@H](N(C)C)[C@H]1O)[C@@H](C)C(=O)[C@@H](C)C(=O)O[C@@H]2CC" ) = 3.13

Reported MIC ( "C=C[C@]12OC(=O)N(CCCCn3cnc(-c4ccc(Cl)nc4)c3)[C@@H]1[C@@H](C)C(=O)[C@H](C)C[C@@](C)(OC)[C@H](O[C@@H]1O[C@H](C)C[C@H](N(C)C)[C@H]1O)[C@@H](C)C(=O)[C@@H](C)C(=O)O[C@@H]2CC" ) = 0.78

Reported MIC ( "C=C[C@]12OC(=O)N(CCCCn3cnc(-c4ccc(O)nc4)c3)[C@@H]1[C@@H](C)C(=O)[C@H](C)C[C@@](C)(OC)[C@H](O[C@@H]1O[C@H](C)C[C@H](N(C)C)[C@H]1O)[C@@H](C)C(=O)[C@@H](C)C(=O)O[C@@H]2CC" ) = 1.56
